Target protein (sequence): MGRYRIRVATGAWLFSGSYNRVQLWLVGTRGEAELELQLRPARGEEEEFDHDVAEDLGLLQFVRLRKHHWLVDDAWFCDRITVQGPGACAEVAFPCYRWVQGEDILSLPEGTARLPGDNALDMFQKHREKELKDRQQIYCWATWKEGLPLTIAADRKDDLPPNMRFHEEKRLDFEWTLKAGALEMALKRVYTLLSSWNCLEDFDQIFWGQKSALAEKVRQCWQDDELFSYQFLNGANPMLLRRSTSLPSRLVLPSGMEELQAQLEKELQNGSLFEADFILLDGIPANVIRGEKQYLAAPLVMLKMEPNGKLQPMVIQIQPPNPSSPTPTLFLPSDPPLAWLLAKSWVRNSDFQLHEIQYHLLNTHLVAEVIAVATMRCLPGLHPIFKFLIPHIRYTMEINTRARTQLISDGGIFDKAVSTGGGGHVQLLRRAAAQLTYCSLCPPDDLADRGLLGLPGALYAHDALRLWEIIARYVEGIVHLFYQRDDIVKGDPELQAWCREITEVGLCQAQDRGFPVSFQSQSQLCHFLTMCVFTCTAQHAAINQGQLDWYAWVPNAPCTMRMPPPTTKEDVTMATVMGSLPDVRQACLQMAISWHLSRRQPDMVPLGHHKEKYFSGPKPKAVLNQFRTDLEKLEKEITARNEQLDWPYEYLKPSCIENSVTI
readout label: Ki (nM)

- compound: "CC(=O)NC(c1cccs1)c1cc(Cl)c2cccnc2c1O (stereo unspecified)"
  readout number: 700
